- PROTOCOL_DETAILS: qHTS for Suppressors of FUS Proteinopathy: Primary screen using FUS-linked yeast assay; note: nearly all actives have a fitted effect of over 55% in size
- MEASUREMENT_CONTEXT: S. cerevisiae FUS-expressing, OD600, 24 h; growth rescue; series mostly up to 76.6 µM
Hit rate of the full screen: of about 390,000 compounds, about 930 (0.24%) were called active. About 5% were inconclusive and are not listed. Calls come from the whole dose curve; as a rule, active = well fitted activation curve with a large enough effect; inconclusive = small, poorly fitted or top-dose-only effect; inactive = no such curve, though single readings can be large or run the other way. This excerpt belongs to a sample that is enriched for actives.
Your reply should match one of these outcome classes. t (active), f (inactive)

Example entries begin here.
CCOc1ccc(NC(=O)c2c(NC(=O)Cc3ccccc3)sc3c2CCCCC3)cc1 :: f
Cc1ccc(NC(=O)c2cc(S(=O)(=O)NCCC3=CCCCC3)ccc2F)cc1C :: f

input: Call for entry CCCNC(=O)C1CCN(c2nc3ccc(C)cc3[nH]2)CC1 :
output: f

input: So what was the verdict on CCC1CCCCN1C(=O)Cn1c(=O)n(CCCCCC(=O)NCc2ccccc2)c(=O)c2sccc21 (stereo not drawn) in this test?
output: f

====

- PROTOCOL_DETAILS: qHTS for Suppressors of FUS Proteinopathy: Primary screen using FUS-linked yeast assay; note: nearly all actives have a fitted effect of over 55% in size
- MEASUREMENT_CONTEXT: S. cerevisiae FUS-expressing, OD600, 24 h; growth rescue; series mostly up to 76.6 µM
Among all 390,000 compounds or so, about 930 (0.24%) were called active. Inconclusive results (about 5%) are left out. The call rests on the fitted dose curve; in most records, active means well fitted activation curve with a large enough effect; inconclusive means small, poorly fitted or top-dose-only effect; inactive means no such curve, though single readings can be large or run the other way. For the sample, actives were picked, then their nearest neighbours and some compounds at random.
# output must be one of active, inactive

The examples below pair each entry with its known result.
CCOC(=O)c1c(NC(=O)c2ccc(S(=O)(=O)N(CC)CC)cc2)sc2c1CCCCC2 :: inactive
Cc1ccc(CNC(=O)CCc2c(C)nc3c(c(C)nn3-c3ccccc3)c2C)cc1 :: inactive

input: I'd appreciate the recorded outcome for COc1ccc(CNC(=O)CC2Oc3ccc(C)cc3NC2=O)cc1 (stereo unspecified) from this test.
output: inactive

input: # outcome recorded in this test, key = COC(=O)c1ccccc1NC(=O)c1ccc2c(=O)n3c(nc2c1)CCCCC3
output: inactive

input: Lab log entry: Cc1ccc(-n2ncc(C(=O)N(C)Cc3ccccc3)c2-n2cccc2)cc1 — outcome as called in the assay?
output: inactive

input: Identify the outcome logged in this assay for the compound shown: COc1cc(OC)c(NC(=O)c2cc(S(=O)(=O)N3CCCC3)cn2C)cc1Cl
output: inactive

input: Hey, what did the test say about CC(C)Cc1ccc(-c2cc3nc(NCc4cccc(Cl)c4)ccn3n2)cc1 ?
output: inactive

input: GET /call?item= CC(=O)Nc1ccc(NC(=O)CCCc2nc(-c3ccc(C(C)(C)C)cc3)no2)cc1 returns the recorded outcome of this test.
output: inactive

input: Any idea what this test logged for CN(C)S(=O)(=O)c1cccc(NC(=O)COC(=O)C2(c3ccccc3F)CCCC2)c1 ?
output: inactive

input: Entry Fc1ccc(Nc2nc(SCc3ccccc3Cl)nc3ccccc23)cc1 : call = ?
output: inactive

input: Answer briefly: the call reported for CN(c1ccccc1)S(=O)(=O)c1ccc(NC(=O)COc2ccccc2)cc1 in this assay.
output: inactive

input: What did this assay record as the result for Cc1cc(/C=N/NC(N)=O)c(C)n1C1CCCCC1 ?
output: active

====

- PROTOCOL_DETAILS: qHTS for Suppressors of FUS Proteinopathy: Primary screen using FUS-linked yeast assay; note: nearly all actives have a fitted effect of over 55% in size
- MEASUREMENT_CONTEXT: S. cerevisiae FUS-expressing, OD600, 24 h; growth rescue; series mostly up to 76.6 µM
- Excerpt: Several widespread neurodegenerative diseases, including Alzheimer disease, Huntington disease, Frontotemporal Lobar Degeneration (FTLD) and Amyotrophic Lateral Sclerosis (ALS), share a common pathological feature, namely accumulation of specific protein aggregates in diseased tissue. These diseases which is associated with protein misfolding (proteinopathies) have become increasingly problematic as the population ages and life expectancies are extended. […]
Hit rate of the full screen: of about 390,000 compounds, about 930 (0.24%) were called active. Inconclusive results (about 5%) are left out. The call rests on the fitted dose curve; in most records, active means well fitted activation curve with a large enough effect; inconclusive means small, poorly fitted or top-dose-only effect; inactive means no such curve, though single readings can be large or run the other way. Many of the other results were omitted from the sample, so actives are more common in it than they were.
Write down the outcome that applies. Available outcomes: 1 (yes) = active, 0 (no) = inactive

Cc1cccc(-n2ncc(C(=O)N3CCc4ccccc4C3)c2C2CCN(C(=O)OC(C)(C)C)CC2)c1 :: 0 (no)

input: What did the test return for CN1CCN(C2(CNC(=O)COc3ccc(C(C)(C)C)cc3)CCCCC2)CC1 ?
output: 0 (no)

input: State the result this test recorded for Cc1ccc(Cl)cc1N(C)C(=O)C1CCCN(c2ncnc3onc(-c4ccc(F)cc4)c23)C1 (stereo unspecified) .
output: 0 (no)

input: Hey, what did the test say about CCN(CCCNC(=O)c1cc2c(=O)n(CC)c3ccccc3c2s1)Cc1ccccc1 ?
output: 0 (no)

input: Kindly provide the recorded test outcome for the following compound: COC(=O)c1cc2occc2n1Cc1nc(-c2ccc(C)cc2)oc1C
output: 0 (no)

input: Record lookup: outcome of this test for CCN1CCN(CCCNC(=O)c2ccc3c(c2)sc2nc(-c4ccc(OC)cc4)cn23)CC1 ?
output: 0 (no)

input: # fetch the recorded call for O=C(CN1CCOCC1)Nc1ccccc1 here
output: 1 (yes)

input: Assay result, entry CCOc1ccc(C2CC(=O)c3c([nH]c(C(=O)OCc4ccccc4)c3C)C2)cc1 (stereo unspecified) — outcome?
output: 0 (no)

input: For CCCCCN(C(=O)CCC(=O)OCC(=O)NCc1ccc(OC)cc1)c1c(N)n(CCCC)c(=O)[nH]c1=O , which call appears in the assay record?
output: 0 (no)

input: I'd appreciate the recorded outcome for O=C(c1ccc(C(F)(F)F)cc1)N1CCC(c2nc(-c3ccc(S(=O)(=O)N4CCCC4)cc3)no2)CC1 from this test.
output: 0 (no)

input: What outcome does the record of this test show for CCCCc1nn2c(=O)cc(COC(=O)c3ccc(NC(=O)c4ccccc4C)cc3)nc2s1 ?
output: 0 (no)

input: Name the outcome recorded for CCC(C(=O)Nc1cccc(-c2nc3cccnc3s2)c1C)c1ccccc1 (stereo unspecified) in the assay.
output: 0 (no)

====

- PROTOCOL_DETAILS: qHTS for Suppressors of FUS Proteinopathy: Primary screen using FUS-linked yeast assay; note: nearly all actives have a fitted effect of over 55% in size
- MEASUREMENT_CONTEXT: S. cerevisiae FUS-expressing, OD600, 24 h; growth rescue; series mostly up to 76.6 µM
Among all 390,000 compounds or so, about 930 (0.24%) were called active. Not shown: some 5% with an inconclusive outcome. The call rests on the fitted dose curve; in most records, active means well fitted activation curve with a large enough effect; inconclusive means small, poorly fitted or top-dose-only effect; inactive means no such curve, though single readings can be large or run the other way. The full list was thinned out, with actives kept by preference.
# output must be one of active, inactive

Worked cases, answers included:
CCN(Cc1ccccc1)S(=O)(=O)c1ccc2c(c1)CCCN2C(C)=O :: inactive
Cc1cccc(CSc2nc3ccncc3n2CC(=O)N(C)C2CCCCC2)c1 :: inactive
Cc1ccc(NC(=O)C2CCN(S(=O)(=O)c3cc(-c4noc(C)n4)ccc3C)CC2)c(C)c1 :: inactive

input: So what was the verdict on Fc1ccc(-c2nc(Nc3cccc(Cl)c3)nc3c2COc2ccccc2-3)cc1 in this test?
output: inactive

input: # fetch the recorded call for COc1ccc(OCCCn2c(C)nc3cc(C)c(C)cc32)cc1 here
output: inactive

====

- PROTOCOL_DETAILS: qHTS for Suppressors of FUS Proteinopathy: Primary screen using FUS-linked yeast assay; note: nearly all actives have a fitted effect of over 55% in size
- MEASUREMENT_CONTEXT: S. cerevisiae FUS-expressing, OD600, 24 h; growth rescue; series mostly up to 76.6 µM
Among all 390,000 compounds or so, about 930 (0.24%) were called active. Roughly 5% stayed inconclusive and do not appear here. Calls come from the whole dose curve; as a rule, active = well fitted activation curve with a large enough effect; inconclusive = small, poorly fitted or top-dose-only effect; inactive = no such curve, though single readings can be large or run the other way. The sample holds actives, similar compounds and a random draw of the others, so the mix is not that of the screen.
Pick one: active, inactive

See these solved cases before continuing.
CC1Cc2cc(S(=O)(=O)CCC(=O)Nc3ccc(F)c(Cl)c3)ccc2N1C(=O)C1CC1 (centres undefined) :: inactive
COc1cccc(-n2c(=O)c3c(C)c(C(=O)N(C)C)sc3n(Cc3cccc(C)c3)c2=O)c1 :: inactive

input: Per the records of this test, what outcome belongs to CON(C)S(=O)(=O)c1ccc2c(c1)NC(=O)C1CCCN21 (centres undefined) ?
output: active

input: Status in this test for COc1ccc(N2CCN(S(=O)(=O)c3ccc4c(c3)NC(=O)C(C)C(=O)N4)CC2)cc1 (centres undefined) ?
output: inactive

input: Hey, what did the test say about COc1ccc(OC)c(-c2csc(-c3c(N)c(C(=O)c4ccccc4)n4ccccc34)n2)c1 ?
output: inactive

input: What classification did COc1cccc(NC(=O)N2CCN(C(=O)c3nsc4ccccc34)CC2)c1 end up with in this test?
output: inactive

input: Called result for COc1ccccc1-c1cc(C(F)(F)F)nc(S(=O)(=O)CCCC(=O)Nc2ccc(F)cc2F)n1
output: inactive

input: Hi, do you know how CC(C)(C)c1ccc(S(=O)(=O)Nc2ccc(O)c(Sc3nc4ccccc4s3)c2)cc1 came out in this test?
output: inactive

input: Which outcome did this test record for the compound CC1C(=O)Nc2ccc(S(=O)(=O)N3CCN(c4ccccc4F)CC3)cc2NC1=O (centres undefined) ?
output: inactive
